Origin of values: the RepoRT retention time repository (doi:10.1016/j.scitotenv.2015.08.078)

Measured LC retention time, listed per entry for reference.
# method: RP, Waters ACQUITY UPLC BEH C18, 100 × 2.1 mm, 1.7 µm, 0.3 mL/min, estimated dead time 0.73 min; A: water + 0.1% formic acid, pH 3; B: methanol + 0.1% formic acid, pH 3; gradient (min/%B) 0/10 14/90 16/90 18/10
# reported_conditions: stereoisomer not certain
Field: numeric (min). Do not append units.

Recorded results for 2 molecules are shown here.
{"molecule": "Cc1cc2c(s1)Nc1ccccc1N=C2N1CCN(C)CC1 [Olanzapine]", "unit_spec": "min", "LC retention time": 3.3}
{"molecule": "CC1C(c2ccc(Cl)cc2)SC(=O)N1C(=O)NC1CCCCC1 (centres undefined) [Hexythiazox]", "unit_spec": "min", "LC retention time": 14.2}

Supply recorded LC retention time for CCOP(=S)(OCC)Oc1ccc(Cl)cc1Cl [Dichlofenthion] here. 13.4

Supply recorded LC retention time for Nc1cnn(-c2ccccc2)c(=O)c1Cl [Chloridazon (Pyrazon)] here. 4.82

Supply recorded LC retention time for CCC(c1ccc(O)cc1)C(CC)c1ccc(O)cc1 (centres undefined) [Hexestrol] here. 11.3

Supply recorded LC retention time for CC1Cc2c(Cl)cc(C(=O)O)c(O)c2C(=O)O1 (stereo not drawn) [Ochratoxin Alpha] here. 11.2

Supply recorded LC retention time for CC1CCCC(=O)CCCC=Cc2cc(O)cc(O)c2C(=O)O1 (centres undefined) [Zearalenone] here. 10.5

Supply recorded LC retention time for CC1Cc2c(Cl)cc(C(=O)NC(Cc3ccccc3)C(=O)O)c(O)c2C(=O)O1 (centres undefined) [Ochratoxin A] here. 9.15

Supply recorded LC retention time for CCNc1nc(NC(C)(C)C)nc(OC)n1 [Terbumeton] here. 8.02
